Tested on: SK-MEL-2 melanoma
Test: NCI-60 one-dose screen, 48 h
Details: 10 µM unless noted
Experimental: Growth inhibition of the SK-MEL-2 human tumor cell line is measured as a screen for anti-cancer activity. Cells are grown in 96 well plates and exposed to the test compound for 48 hours. Compounds are tested at a single concentration, which is 10^-5 M for most compounds. The reported endpoint is percent growth (GI% or GIPRCNT), where numbers from 0 - 100% represent growth inhibition, and numbers from -100% - 0 represent cell death. For example, a value of 40 represents 60% growth inhibition. […]
Compounds without any hit were thinned out: in the full panel of roughly 83,000, 20% have a hit. Active and inactive are the calls of the source. Rule for the calls: active = growth percent below 10; inactive = the rest.
Outcome field: choose from YES for active, NO for inactive

(Q) Given O=S(=O)(Nc1ccc2c(c1)OC(F)(F)O2)c1ccc(-c2cnc(C3CC3)o2)cc1 , state the outcome it received in this test.
(A) NO

(Q) Given O=C(Nc1ccc(-c2nc(-c3cccc(O)c3)c(-c3ccnc(Br)c3)[nH]2)cc1)c1ccccc1 , state the outcome it received in this test.
(A) NO

(Q) Given O=C(/C=C/c1cccc(O)c1)c1ccc(O)cc1 , state the outcome it received in this test.
(A) NO

(Q) Given Cc1cc(O)c2c(c1)C(=O)C(c1c(C)cc3c(c1O)C(=O)C=CC3=O)=CC2=O , state the outcome it received in this test.
(A) NO

(Q) Given CCOc1c(C#N)c(Nc2ccc(S(N)(=O)=O)cc2)c(C#N)c2nnc(C)n12 , state the outcome it received in this test.
(A) NO

(Q) Given Cc1nn(-c2ccc(Cl)cc2)c(C)c1N=Nc1ccc2oc(=O)ccc2c1 , state the outcome it received in this test.
(A) NO

(Q) Given Oc1ccc(CSc2nnc(-c3cnccn3)n2-c2ccccc2)c2cccnc12 , state the outcome it received in this test.
(A) NO

(Q) Given CCCC(=O)NC(c1cccnc1)c1ccc2c(C)ccnc2c1O (centres undefined) , state the outcome it received in this test.
(A) NO

(Q) Given C[C@H]1[C@H](C)CC[C@]2(COC(=O)c3cccnc3)CC[C@]3(C)C(=CC[C@@H]4[C@@]5(C)CCCNC(C)(C)[C@@H]5CC[C@]43C)[C@H]12 , state the outcome it received in this test.
(A) NO

(Q) Given O=C(COc1ccc(/C=C2\SC(=O)NC2=O)cc1)Nc1ccc(C(=O)/C=C/c2cc3ccccc3nc2Cl)cc1 , state the outcome it received in this test.
(A) NO

(Q) Given CNC(=O)c1cc(N2CCc3cc(NC(=O)Nc4ccc(Cl)c(Cl)c4)ccc32)ccn1 , state the outcome it received in this test.
(A) NO

(Q) Given CC[C@@](C)(NC(=O)C(C)(C)NC(=O)[C@@H](NC(=O)[C@@H]1CCCN1C(=O)C(C)(C)NC(=O)[C@H](CC(C)C)NC(=O)CNC(=O)C(C)(C)NC(=O)[C@@H](NC(=O)C(C)(C)NC(=O)[C@H](CCC(N)=O)NC(=O)[C@H](C)NC(=O)C(C)(C)NC(=O)[C@H](C)NC(=O)C(C)(C)NC(=O)[C@@H]1CCCN1C(=O)C(C)(C)NC(C)=O)C(C)C)C(C)C)C(=O)N[C@@H](CCC(N)=O)C(=O)N[C@@H](CCC(N)=O)C(=O)N[C@H](CO)Cc1ccccc1 , state the outcome it received in this test.
(A) YES

(Q) Given CCN(CC)CCCC(C)NCC(=O)NC(c1ccc2c(c1)OCO2)c1cc(Cl)c2cccnc2c1O (centres undefined) , state the outcome it received in this test.
(A) NO

(Q) Given CCOC(=O)C1=C(C)Nc2nc3ccccc3n2C1c1cccc(Br)c1 (centres undefined) , state the outcome it received in this test.
(A) NO

(Q) Given NC(=S)N/N=C(/C=C/c1cn(-c2ccccc2)nc1-c1ccc(Cl)cc1)c1cc2ccccc2oc1=O , state the outcome it received in this test.
(A) NO

(Q) Given Cc1ccc(-c2csc(N/N=C/c3nc4ccccc4n3C3CC3)n2)cc1 , state the outcome it received in this test.
(A) NO

(Q) Given CCCCCCCCNC(=O)c1ccc(Cn2c(CCCC)nc3c(N)nc4ccccc4c32)cc1 , state the outcome it received in this test.
(A) NO

(Q) Given Cc1ccc(/C=C/CC(=O)Nc2ccc(C(=O)Nc3ccc(F)cc3N)cc2)cn1 , state the outcome it received in this test.
(A) NO

(Q) Given O=C(O)c1ccc(-n2cc(CNc3ccc(Cl)cc3)c(-c3ccc(F)cc3)n2)cc1 , state the outcome it received in this test.
(A) NO

(Q) Given CCN(CC)CCN1C(=O)c2c(c3c4cc(Br)ccc4[nH]c3c3ccc4ccccc4c23)C1=O , state the outcome it received in this test.
(A) NO

(Q) Given CCOC(=O)c1nn(-c2ccccc2)c(=O)c2c(N)c(C#N)c(-c3cccs3)cc12 , state the outcome it received in this test.
(A) NO

(Q) Given CCN(CC)c1ccc2cc(C(=O)NCCOCCOCCOCCn3cc(CCC(=O)Nc4ccc(C(=O)c5ccc(NC(=O)OC(C)(C)C)cc5)cc4)nn3)c(=O)oc2c1 , state the outcome it received in this test.
(A) NO

(Q) Given N=c1c2cc(-c3ccccc3)oc2ncn1/N=C/c1ccccc1 , state the outcome it received in this test.
(A) NO

(Q) Given CC(C)SC1=NC(=C(C(=N1)NC2=ClC=CC=C2)C#N)C3=CC=CC=C3 , state the outcome it received in this test.
(A) NO

(Q) Given O=C(Nc1ccc(F)cc1)c1cc(-c2ccc(F)cc2F)ccc1O , state the outcome it received in this test.
(A) YES

(Q) Given C=C1C(=O)O[C@@H]2C[C@@H](C)CCC(=O)[C@](C)(OC(C)=O)C[C@H](OC(=O)/C(C)=C\C)[C@@H]12 , state the outcome it received in this test.
(A) NO

(Q) Given COc1ccccc1/C=C/C=N/NC1=NC2C(S1)N(C)C(=O)N2c1ccccc1 (centres undefined) , state the outcome it received in this test.
(A) NO

(Q) Given CCCC(=O)NC(c1cccnc1)c1cc(C(C)=O)c2cccnc2c1O (centres undefined) , state the outcome it received in this test.
(A) NO

(Q) Given O=S(=O)(Nc1cc(Cl)c(F)c(Cl)c1)c1ccc(-c2cnc(C3CC3)o2)cc1 , state the outcome it received in this test.
(A) NO

(Q) Given C=C(C)[C@@H]1CC[C@]2(C(=O)NCCCN(CCC#N)CCC#N)CC[C@]3(C)[C@H](CC[C@@H]4[C@@]5(C)CCC(=O)C(C)(C)[C@@H]5CC[C@]43C)[C@@H]12 , state the outcome it received in this test.
(A) NO

(Q) Given CN1CCN(c2ccc3c(C(N)=O)c(NC(=O)c4ccc(C(C)(C)C)cc4)sc3c2)CC1 , state the outcome it received in this test.
(A) NO

(Q) Given CCOC(=O)Nc1ccc(-c2nc(-c3cccc(O)c3)c(-c3ccnc(Br)c3)[nH]2)cc1 , state the outcome it received in this test.
(A) NO

(Q) Given COc1cc(NC2=C(Cl)C(=O)c3nc(C)ccc3C2=O)cc(OC)c1 , state the outcome it received in this test.
(A) YES

(Q) Given O=C(CSc1ccc(-c2nc3ccccc3[nH]2)cn1)N1CCN(c2ccccc2F)CC1 , state the outcome it received in this test.
(A) NO
